- ASSAYED_TARGET: IgG
- ASSAY_PROTOCOL: SPR, IgG immobilised on CM5 chip, compound as analyte; value from the legend of the grade (**** = Kd <100 nM)
pKd: −log10 of the molar value. Bridges are numbered along the chain shown (N, C = ends). [ ]: non-standard residue; d: D form.
ASSAY_ENDPOINT: pKd

>>> reported_measurement("cyclo(PDCAWHLGELVWCT[dP]) (disulfide 3-13; not fully specified (residue 1); also: conjugate from starting material A137, ligand number not given here) [Compound 65]")
"> 7.00"
>>> reported_measurement("PDCAWHLGELVWCTP (residue 1 = (2S,4S)-4-aminoproline; residue 15 = D-Pro; backbone cyclised head to tail; disulfide Cys3-Cys13; 4-amino group of residue 1 acylated with the linker to the sugar ligands) [Compound 85]")
"> 7.00"
>>> reported_measurement("cyclo(PDCAWHLGELVWCT[dP]) (disulfide 3-13; not fully specified (residue 1); also: 4-amino group of residue 1 acylated with linker to ASGPR ligands) [Compound 94]")
"> 7.00"
